# EXPERIMENTAL_DETAILS: solubility L in liquid crystal mixture
# Assay type: physicochemical
# COND: 1 week stirring, liquid crystal mixture ZLI 2452
PARAMETER_MEASURED: Solubility L (at room temp.)

MOLECULE	EXPERIMENTAL_VALUE
CCCCCCCC(C)Sc1nnc(-c2ccc(N=Nc3ccc(N=Nc4ccc(N(C)CCCC)cc4)c4ccccc34)cc2)s1 (stereo not shown)	> 5%
CCCCC1CCC(c2ccc(COc3ccc(N=Nc4ccc(N=Nc5ccc(-c6nnc(SCC(CC)CCCC)s6)cc5)c5ccccc45)c(C)c3)cc2)CC1 (stereo not shown)	3.1%
CCCCC(CC)CSc1nnc(-c2ccc(N=Nc3ccc(N=Nc4ccc(N(C)CCCC)cc4)c4ccccc34)cc2)s1 (stereo not shown)	> 5%

Next item in the queue.
Ask: Look up Solubility L (at room temp.): CCCCCCCC(C)Sc1nnc(-c2ccc(N=Nc3ccc(N=Nc4ccc(OCc5ccc(C6CCC(CCCC)CC6)cc5)cc4C)c4ccccc34)cc2)s1 (stereo not shown)
Result: > 5%
